Examples of molecules with documented TGI follow.
Test system: HCC-2998 colon
Experiment: NCI tumour cell line growth inhibition, 48 h
API: value field is a number in µM; no unit string.

- Cc1cc(-c2cc(OC(=O)c3ccccc3)ccc2Cl)cc2nnc(Nc3ccc(OCCN4CCCC4)cc3)nc12: 3.37
- CC(=O)ON=C1C=CC(=C(C#N)c2ccccc2)C=C1: 32.2
- COc1ccc(/C=C/C(=O)/C=C(O)/C=C/c2ccc(OC)c(OC)c2)cc1OC: 34.9

Field: next molecule
Query: Reported TGI, molecule `COc1ccc2nc3ccccc3c(NCCN(CCCl)CCCl)c2c1` : ____
Response: 2.73

----------
Test system: A498 renal
Assay: NCI tumour cell line growth inhibition, 48 h
Examples of molecules with documented TGI follow.

• CCOC(=O)CC1Nc2ccccc2C12CCc1c([nH]c3ccccc13)C2C(=O)OCC (stereo not drawn) = > 100 µM
• CC(N)C(C)c1ccccc1 (stereo not drawn) = > 100 µM
• O=c1c2cc([N+](=O)[O-])ccc2n2n1CCCCC2 = > 100 µM
• CN1C2(c3ccccc3)C(C(=O)c3ccccc3)=C(C(=O)c3ccccc3)C1(c1ccccc1)c1c(-c3ccccc3)sc(-c3ccccc3)c12 = > 100 µM
• COc1ncc(-c2ccc3nccc(C#CCCCCC(=O)NO)c3c2)cc1NS(=O)(=O)c1ccc(F)cc1F = 0.0962 µM
• O=C(NC(OCc1ccccc1)(C(F)(F)F)C(F)(F)F)OCc1ccccc1 = 31.6 µM

Query: Reported TGI, molecule O=C(CC1(O)C(=O)Nc2ccccc21)c1ccccc1O (stereo not drawn) : ____
Response: > 100 µM

Query: Same thing, different molecule: `CC/C=C\C=C/C(=O)N/C=C/CCC`
Response: > 100 µM

Query: Same thing, different molecule: `O=C(CCN1CCCN(c2cnc3ccccc3n2)CC1)c1csc2ccccc12`
Response: > 100 µM

Query: Same thing, different molecule: `c1ccc(/C(=N/Nc2ccccn2)c2cccnn2)cc1`
Response: > 100 µM

----------
Test system: U251 CNS
Pick one and only one: active, inactive

The following molecules have reported results that may help.
* CC(=O)N[C@@H](Cc1ccc(OP(=O)(O)O)cc1)C(=O)N[C@H]1CCC(=O)N2CCC[C@@H](C(=O)NC3CCc4ccccc43)N2C1=O (stereo partly drawn) | inactive
* O=C(CN1CCN(C(=O)c2ccco2)CC1)Nc1ccc(Cl)cc1C(=O)c1ccccc1Cl | inactive
* CC(=O)Nc1cc2c3c(cccc3c1)-c1ccccc1-2 | inactive
* Nc1cc(N)c2nc(NCCc3ccc(Cl)c(Cl)c3)cnc2c1 | inactive
* COc1ncc(-c2ccc3nccc(C#CCCCCC(=O)NO)c3c2)cc1NS(=O)(=O)c1ccc(F)cc1F | active

Query: How was `COC(=O)[C@]12CC[C@@H](C)[C@H](C)[C@@H]1C1=CC[C@@H]3[C@@](C)(CC#N)C4=C(C[C@@]3(C)[C@]1(C)CC2)OC[C@]4(C)C=O` classified in this test?
Response: inactive

Query: Same thing, different molecule: `CN(C)CCCCNc1ccc(NCCCCN(C)C)c2c1C(=O)c1c(O)ccc(O)c1C2=O`
Response: inactive

Query: Same thing, different molecule: `O=C(Nc1cccc(-n2cc(-c3ccncc3)c(-c3ccc(Cl)c(O)c3)n2)c1)Nc1ccc(Cl)c(Cl)c1`
Response: inactive

----------
Tested on: OVCAR-8 ovarian
Experiment: NCI tumour cell line growth inhibition, 48 h
VALUE_TYPE: TGI (µM)
API: value field is a number in µM; no unit string.

Completed entries (count: 3):
* COc1cc(N2CCC(N)CC2)ccc1Nc1ncc(Cl)c(-c2c[nH]c3ccccc23)n1 | 2.44
* CC(C)C(=O)/C=C/c1c(Cl)cccc1Cl | 13.6
* CCCCCCCCCCCCCCCCCCOc1ccccc1COP(=O)(O)OOCC[N+](C)(C)C | 9.22

Query: Missing value: TGI, OVCAR-8 ovarian, entry `Cc1ccc(S(=O)(=O)Nn2c(S)c(C#N)c(-c3ccc(Cl)cc3)c(C#N)c2=O)cc1` . Fill in?
Response: 50.8

----------
Test system: NCI-H23 lung
Experiment: NCI tumour cell line growth inhibition, 48 h
VALUE_TYPE: TGI

Completed entries (count: 4):
• COc1ccc(C=O)cc1OS(=O)(=O)C(F)(F)C(F)(F)C(F)(F)C(F)(F)F = > 100 µM
• Cc1c(C#N)c2nc3ccccc3n2c(=O)/c1=C/Nc1ccc(Cl)cc1 = 59.8 µM
• CC1C(O)=C(O)c2ccccc2N1O (stereo not given) = > 100 µM
• CCN(CC)CC(O)c1cc(-c2ccc(Cl)cc2)nc2c(C)c(Cl)ccc12 (stereo not given) = 3.3 µM

Query: Missing value: TGI, NCI-H23 lung, entry C=C(C)CCC(O)[C@](C)(O)[C@H]1[C@H](O)C[C@@]2(C)[C@@H]3CCc4c(cc(OC5OC(CO)C(O)C(O)C5O)c(O)c4C)C3(C)C(=O)C[C@]12C (stereo not given in full) . Fill in?
Response: > 100 µM

----------
Test system: MCF7 breast
Experiment: NCI tumour cell line growth inhibition, 48 h
VALUE_TYPE: TGI

Completed entries (count: 2):
- COc1cc(C2CC(c3cccc(Nc4ccnc5cc(Cl)ccc45)c3)=NN2c2ccccc2)cc(OC)c1OC (stereo unspecified): > 100 µM
- O=C1c2ccccc2C(=O)N1NC1=NCCN1: > 100 µM

Query: Reported TGI, compound `Cc1ccc(-c2cc(=O)c(=O)[nH][nH]2)cc1` : ____
Response: > 100 µM

Query: Same thing, different compound: CCCCCCCCCCCCCCCCCC[S+](C)CC (stereo unspecified)
Response: 4.99 µM

Query: Same thing, different compound: Nc1ccc(C2SCC(=O)N2NS(=O)(=O)c2cccc(C(=O)O)c2)cc1 (stereo unspecified)
Response: > 100 µM

Query: Same thing, different compound: `CN1CCc2c(sc3ncn(Nc4ccc(F)cc4)c(=N)c23)C1`
Response: > 100 µM

----------
System: MALME-3M melanoma
Test: NCI tumour cell line growth inhibition, 48 h
VALUE_TYPE: TGI

Completed entries (count: 6):
* C=C(C)CCC(O)[C@](C)(O)[C@H]1[C@H](O)C[C@@]2(C)[C@@H]3CCc4c(cc(OC5OC(CO)C(O)C(O)C5O)c(O)c4C)C3(C)C(=O)C[C@]12C (stereo partly drawn) | > 100 µM
* CC(C)C(/C=C/c1ccc(Cl)cc1)=N\NC(=O)N/N=C(/C=C/c1ccc(Cl)cc1)C(C)C | > 100 µM
* Cc1cc(N=Cc2c(CO)cnc(C)c2O)c(N=Cc2c(CO)cnc(C)c2O)cc1C | > 100 µM
* CCN(/N=C1\CC2C=CCN(C2)C(=O)Cc2c1[nH]c1ccccc21)S(=O)(=O)c1ccc(C)cc1 (stereo not drawn) | > 100 µM
* [CH3][Hg]/[N]=C(/N)NC#N | 4.94 µM
* O=C(CC(C(=O)c1cccs1)c1ccc2c(c1)OCO2)c1ccccc1 (stereo not drawn) | > 100 µM

Query: Reported TGI, compound `COCCCNc1c2ccccc2nc2ccccc12` : ____
Response: 7.17 µM

----------
System: CAKI-1 renal
Experiment: NCI tumour cell line growth inhibition, 48 h
Examples of compounds with documented TGI follow.
API: value field is a number in µM; no unit string.

Query: Reported TGI, compound `O=C(/C=C/C=C/c1ccc2c(c1)OCO2)N/N=C\c1ccc(O)cc1O` : ____
Response: 15.2

Query: Same thing, different compound: `O[C@@]12Cc3c([nH]c4ccccc34)[C@@H]3Oc4c(-c5ccccc5)ccc5c4[C@@]31CCN(CC1CC1)[C@@H]2C5`
Response: 11.1

Query: Same thing, different compound: `O=C(O)c1ccc(/C=N/N=C2c3ccccc3-c3ccccc32)cc1`
Response: 93.3

Query: Same thing, different compound: CCC(C)C1NC(=O)C(NC(=O)C(CC(C)C)N(C)C(=O)[C@@H]2CC(O)CN2C(=O)[C@H](C)O)C(C)OC(=O)[C@H](Cc2ccc(OC)cc2)N(C)C(=O)[C@@H]2CCCN2C(=O)[C@H](CC(C)C)NC(=O)C(C)C(=O)[C@H](C(C)C)OC(=O)CC1O (stereo partly drawn)
Response: 2.99

----------
Examples of molecules with documented GI50 follow.
Tested on: HCT-15 colon
Test: NCI tumour cell line growth inhibition, 48 h

* [CH3][Hg]/[N]=C(/N)NC#N | 3.02 µM
* CC(=O)ON=C1C=CC(=C(C#N)c2ccccc2)C=C1 | 0.97 µM
* COc1ccc(/C=C/C(=O)/C=C(O)/C=C/c2ccc(OC)c(OC)c2)cc1OC | 3.76 µM
* COc1cc(C(=O)NN=C2c3ccccc3-c3ccccc32)cc(OC)c1OC | 2.63 µM
* COC(=O)Nc1nc2ccc(C(=O)c3ccc(F)cc3)cc2[nH]1 | 0.0909 µM

Query: Reported GI50, molecule `COc1ncc(-c2ccc3nccc(C#CCCCCC(=O)NO)c3c2)cc1NS(=O)(=O)c1ccc(F)cc1F` : ____
Response: 0.15 µM

Query: Same thing, different molecule: O=C1OCC2=C1C(c1cccc(Cl)c1)c1cc3c(cc1N2CCO)CCC3 (configuration not stated)
Response: 0.0471 µM
